The reader will find reported Biacore t/2 diss. [min] 37° C. murine values listed item by item below.
# study_target: Biotinylated murine soluble TWEAK (amino acids 81-225 of SEQ ID NO: 69) (murine) (UniProt O54907)
# experimental_protocol: SPR (Biacore), biotinylated soluble TWEAK on streptavidin chip, 37 C
Please reply with the bare figure in min and do not write the unit itself.

binder	value_kind	output_unit	quantitative_result
Humanized <TWEAK> 305- antibody 29 (antibody, V domains shown) VH: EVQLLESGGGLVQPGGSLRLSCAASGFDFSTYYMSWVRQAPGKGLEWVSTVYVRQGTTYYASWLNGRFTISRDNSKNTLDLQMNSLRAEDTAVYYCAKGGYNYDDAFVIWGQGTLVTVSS VL: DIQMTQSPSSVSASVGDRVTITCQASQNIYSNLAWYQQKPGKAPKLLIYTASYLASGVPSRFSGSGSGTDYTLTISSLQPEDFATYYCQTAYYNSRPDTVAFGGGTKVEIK	Biacore t/2 diss. [min] 37° C. murine	min	21

As a next step, examine the binder that follows.
Form field: reported Biacore t/2 diss. [min] 37° C. murine of Humanized <TWEAK> 305- antibody 28 (antibody, V domains shown) VH: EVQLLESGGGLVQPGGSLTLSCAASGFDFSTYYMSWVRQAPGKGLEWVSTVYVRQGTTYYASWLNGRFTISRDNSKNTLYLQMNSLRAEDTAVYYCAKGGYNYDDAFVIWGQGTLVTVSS VL: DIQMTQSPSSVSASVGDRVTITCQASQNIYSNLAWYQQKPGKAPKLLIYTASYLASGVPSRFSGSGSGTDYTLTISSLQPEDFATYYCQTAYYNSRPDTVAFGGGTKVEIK
17

Origin of measurements: patent US20150132307A1
